Data provenance is patent US9357777B2.

assayed system: bovine trypsin (Bos taurus, UniProt P00760)
Construct: purchased Sigma-Aldrich
experimental protocol: Inhibition kinetics with bovine trypsin (BApNA substrate)
Type: biochemical
recorded conditions: substrate BApNA 1 mM; FIG. 2C
pIC50: −log10 of the molar value. Bridges are numbered along the chain shown (N, C = ends). Where no end group is shown, it is not given here.
readout kind: pIC50

| sequence text | result |
| --- | --- |
| QPICTNSSAGLKGCNYYNADGTFICEGESDPNHPKACPKNCDPNIAYSLC (disulfide 4-41, 14-50; cysteines drawn unpaired) [IRD-9] | ~5.66 |

###

assayed system: bovine trypsin (Bos taurus)
Construct: purchased Sigma-Aldrich
Sequence (P00760 24-246): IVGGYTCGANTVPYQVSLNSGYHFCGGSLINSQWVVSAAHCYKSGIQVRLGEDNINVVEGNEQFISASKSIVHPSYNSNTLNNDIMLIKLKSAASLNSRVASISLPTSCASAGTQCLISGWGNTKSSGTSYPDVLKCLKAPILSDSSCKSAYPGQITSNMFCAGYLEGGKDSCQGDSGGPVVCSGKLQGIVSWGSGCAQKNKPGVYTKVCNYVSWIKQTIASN
experimental protocol: Inhibition kinetics with bovine trypsin (BApNA substrate)
Type: biochemical
recorded conditions: calculated from IC50 by Cheng-Prusoff's equation; read-out: Inhibition constant (Ki)
pKi: −log10 of the molar value. Bridges are numbered along the chain shown (N, C = ends). Where no end group is shown, it is not given here.

| sequence text | pKi |
| --- | --- |
| QPICTNSSAGLKGCNYYNADGTFICEGESDPNHPKACPKNCDPNIAYSLC (disulfide 4-41, 14-50; cysteines drawn unpaired) [IRD-9] | ~5.66 |
